Entry source: a flash point compilation (Sun et al. 2020)

recorded_metric: flash point (°C)

INSERT INTO assay_data (compound, recorded_metric, result_value) VALUES
  ('CCC(C)(C)OC', 'flash point', -7.00);

a: CCOc1ccc2c(c1)C(C)=CC(C)(C)N2
b: C=C1CCC2CC1C2(C)C (stereo not drawn) [6,6-dimethyl-2-methylidenebicyclo[3.1.1]heptane]
## Task Lower value for measured flash point? Options: a , b Kindly state the label of the option you pick.
## Result b

###

recorded_metric: flash point (°C)

Look over these answered cases.
INSERT INTO measurements (compound, recorded_metric, result_value) VALUES
  ('CCCC(=O)CCC [4-HEPTANONE]', 'flash point', 48.0),
  ('CCCCCl [1-Chlorobutane]', 'flash point', -9.3),
  ('CCC(C)CC(C)(C)CC (stereo not drawn) [3,3,5-TRIMETHYLHEPTANE]', 'flash point', 28),
  ('CCC(=O)C(C)C [3-Pentanone, 2-methyl-]', 'flash point', 13.0),
  ('O=C(O)CCCCCC(=O)O [PIMELIC acid]', 'flash point', 215);

a: CCC(C)CCO (stereo not drawn) [1-Pentanol, 3-methyl-]
b: CCCCCCCCCCCC(=O)O [Lauric acid]
c: CCC1CCCCC1 [Cyclohexane, ethyl-]
## Task Would you mind ranking these compounds by ascending flash point? # respond with the labels, arranged in the requested order
## Result c, a, b
(c: 18.0 °C, a: 58.0 °C, b: 164 °C)

1: CCCCCCC(C)=O [2-OCTANONE]
2: Cc1ccc(C)c(C)c1C [1,2,3,4-Tetramethylbenzene]
3: CC(C)Cl [2-Chloropropane]
4: CC(C)=C(C)C [2-Butene, 2,3-dimethyl-]
5: CC(C)CCC(C)C [Hexane, 2,5-dimethyl-]
## Task Would you mind ranking these compounds by ascending flash point? # respond with the labels, arranged in the requested order
## Result 3, 4, 5, 1, 2
(3: -34.9 °C, 4: -16.0 °C, 5: 2.0 °C, 1: 51.0 °C, 2: 74.0 °C)

1: C=CCCCCCCC [1-NONENE]
2: CCCCCCC(=O)CC [3-Nonanone]
3: COCC(C)OC (stereo not drawn) [1,2-Dimethoxypropane]
## Task Would you mind ranking these compounds by ascending flash point? # respond with the labels, arranged in the requested order
## Result 3, 1, 2

1: CCCCCC(C)CC (stereo not drawn) [Octane, 3-methyl-]
2: CCCCCCCCCCO [Decyl alcohol]
## Task # argmax over flash point for candidates 1 and 2 Kindly state the label of the option you pick.
## Result 2
(2: 104.0 °C, 1: 25.5 °C)
